Measured quantity: melting point

Molecule: COP(=O)(CC(=O)C(C)(C)Cc1ccccc1)OC
melting point: 39 to 46 °C

For COc1cc2c(c(Cl)c1Cl)C(=O)C(C)(C)C2(C)c1ccccc1 (stereo not given) , what is its reported melting point? 189 to 190 °C

Could you share which melting point value was measured for CN(C)c1cc(C(O)c2ccccc2)c([N+](=O)[O-])cc1[N+](=O)[O-] (stereo not given) ? 147 to 150 °C

====

melting point listing for selected compounds.

Compound: COc1ccc(-c2[nH]nc3c2C(=O)c2c(NC(=O)NN4CCOCC4)cccc2-3)cc1
melting point: 290 to 291 °C
--
Compound: O=S(=O)(O)c1ccc(NCc2ccccc2F)cc1
melting point: > 270 °C

// melting point lookup, key: CC(CC(=O)Nc1c(Cl)ccc2nc(N3CCC(N)C3)ccc12)c1ccccc1 (stereo unspecified) 204 to 207 °C

State the recorded melting point for this entry: `O=C(c1ccc(F)cc1)C1CCN(CCN(C(=O)c2ccc([N+](=O)[O-])cc2)c2ccccc2)CC1` 178 to 180 °C

Bench note: what melting point did `COc1ccc2c(c1)c(COC(C)(C)C(=O)O)nn2Cc1ccccc1` show? 128 to 130 °C

Using the record for `O=c1[nH]c(=O)n(Cc2cccc(OCc3noc(-c4ccccc4)n3)c2)o1` , report its melting point. 133 to 134 °C

Would you mind telling me what melting point value was observed for `Cc1ccc2c(c1)oc1c(C(=O)O)nn(-c3ccc(Cl)cc3Cl)c12` ? 228 to 230 °C

I would be grateful if you could share the reported melting point for `COc1ccc(CN(C)CCCCc2ccc(NC(=O)c3cnc4ccccc4n3)cc2)cc1OC` . 82 to 85 °C

Recorded melting point of `CC(C)CCNC(=O)c1ccccc1-c1ccccc1CNS(=O)(=O)c1ccccc1` , please. 127 °C

Would you kindly share the measured melting point for COC1=NC2OC(C(O)c3ccc(Cl)cc3Cl)=C(N)C2C=C1 (stereo unspecified) ? 259 to 260 °C

Recorded melting point of CCC(C)Nc1c([N+](=O)[O-])cc(C)c(Cl)c1[N+](=O)[O-] (stereo unspecified) , please. 40 to 46 °C

====

# Lookup of reported melting point keyed by entry

Worked cases, melting point given:
Compound: CN(C)S(=O)(=O)c1cccc2c1Sc1ccc(O)cc1N2CCCN1CCC(CCO)CC1
Meas value: 163 to 165 °C
--
Compound: Cc1cc2c(nc(C)n2CCc2ccccc2)c(N)n1
Meas value: 185 to 187 °C
--
Compound: COC(=O)Nc1nc2cnc3ccccc3c2n1CC(C)(C)O
Meas value: 225 °C
--
Compound: O=C1CN(C/C=C/c2ccc(Cl)cc2)CCN1c1cc(F)ccc1[N+](=O)[O-]
Meas value: 57 °C
--
Compound: CC1=C(CCC(C)CCC(=O)O)C(=O)c2ccccc2C1=O (stereo not given)
Meas value: 58 to 61 °C
--
Compound: C#C[C@@](C)(O)CCC1=C(C)C(=O)C(C)=C(C)C1=O
Meas value: 80 to 82 °C
--
Compound: Cc1cc(Oc2cccc(C(F)(F)F)c2)nn1C(=O)Nc1ccc(Cl)c(Cl)c1
Meas value: 97 to 99 °C
--
Compound: CN(C)Cc1cc2ccc(C(=O)NNC(=O)CSCCOc3ccccc3)cc2o1
Meas value: 162 to 164 °C

What does the data say about its melting point? Entry: `O=S(=O)(/C=C/c1ccc(F)cc1)Nc1ccc(Cl)cc1` 126 to 128 °C

Which measured melting point value corresponds to `COc1ccc(C(=O)Nc2ccccc2)c(NS(=O)(=O)c2ccc([N+](=O)[O-])cc2)c1` ? 224 to 227 °C

====

melting point overview

// worked examples, melting point included
Query smiles: Cc1ccc(Cl)cc1-n1c(CF)nc2ccc(N)cc2c1=O
Meas value: 214 to 216 °C

Query smiles: CN1C(=O)C=C(c2cccc(Cl)c2)C1=O
Meas value: 111 to 113 °C

Query smiles: COC(=O)c1nc(N=[N+]=[N-])ccc1OCc1ccccc1
Meas value: 88 to 89 °C

Would you mind telling me what melting point value was observed for `CCC(=Cc1ccc(C(=O)O)cc1Cl)[N+](=O)[O-]` ? 179 to 180 °C

I am curious: what melting point value has been reported for `NNc1ccc(C(=O)c2ccccc2)cc1[N+](=O)[O-]` ? 163 to 164 °C

I am curious: what melting point value has been reported for `O=[N+]([O-])c1ccccc1CSc1nnnn1-c1ccccc1` ? 158 to 161 °C

====

Measured quantity: melting point

Worked examples, 5 compounds total:
Compound: CSc1ccc(Oc2cccc(C=O)n2)cc1
Measured quantity: melting point
Meas value: 60 to 63 °C

Compound: Cc1cc(C)c2cccc(OCc3c(Cl)ccc(S(=O)(=O)N4CCC[C@H]4C(=O)NCCNC(=O)COc4ccc(C=NN)cc4)c3Cl)c2n1
Measured quantity: melting point
Meas value: 156 to 160 °C

Compound: CC1Cc2cc3c(cc2C(c2ccc([N+](=O)[O-])cc2)=NN1c1ncon1)OCO3 (stereo not given)
Measured quantity: melting point
Meas value: 190 to 196 °C

Compound: CN1C(=O)NC2(CCCCC2)C1=O
Measured quantity: melting point
Meas value: 214 to 215 °C

Compound: CCOC(=O)c1cnn(-c2ccc(Cl)cc2)c1
Measured quantity: melting point
Meas value: 127 to 128 °C

Please look at the following compound next.
Find the recorded melting point belonging to `CSCC[C@H]1NC(=O)[C@@H]([C@H](C)c2cccc3ccccc23)NC1=O` and report it. 265 to 268 °C

====

Measured quantity: melting point

// solved cases for melting point follow
Compound: CN(C)CCOc1cc(NS(=O)(=O)c2ccc(Oc3cccc(Cl)c3C#N)cc2)ccc1Cl
melting point: 103 to 106 °C

Compound: COc1cc2ncnc(N3CCN(C(=O)NCc4cnc(C)cn4)CC3)c2cc1OC
melting point: 202 to 204 °C

Compound: O=C(NNS(=O)(=O)c1ccccc1)c1ccc(F)cc1Cl
melting point: 147 to 149 °C

Compound: Cc1ccccc1C(=O)Nc1ccc(C(=O)N2Cc3cccn3-c3ccccc32)cc1
melting point: 206 to 207 °C

Compound: Cc1cccc2nnc(-c3ccccc3)c(O)c12
melting point: 215 to 217 °C

Looking for the measured melting point of `COc1ccc(C2=NCc3nncn3-c3ccc(Cl)cc32)cc1` , can you help? 216 to 217 °C

Name the recorded melting point for `COc1cc2c(cc1OC)CN(CCCOc1ccc(NC(=O)c3cccc4c(=O)c5cccc(C)c5[nH]c34)c(C)c1)CC2` . 160 °C

Requested field: melting point. Item: CCC(NC(=N)NC#N)c1ccccc1 (stereo not given) 121 to 123 °C

Please report the recorded melting point for `CCCc1nc2c(N)nc3cc(C)ccc3c2o1` . 188 to 189 °C

Find the recorded melting point belonging to CN1C(=O)CC(c2ccccc2)C1C(O)Cc1cccc(Cl)c1 (stereo not given) and report it. 50 to 52 °C

====

A collection of molecules and their measured melting point

Previously resolved entries follow.
Molecule: CC(C)c1cccc2cc3ccccc3cc12
melting point: 36 to 36.5 °C
--
Molecule: O=C(NC(Cc1ccccc1)C(=O)O)OCC1c2c(c3ccccc3c3ccccc23)-c2c1c1ccccc1c1ccccc21 (centres undefined)
melting point: 137 to 140 °C
--
Molecule: CCN1C(=O)C(N(CC(F)(F)C(F)(F)F)C(=O)C(C)C(N)=O)COc2ccccc21 (centres undefined)
melting point: 152 °C
--
Molecule: CCn1cc(C(=O)O)c(=O)c2cc(F)c(N3CCN(O)CC3)c(F)c21
melting point: 253 to 260 °C
--
Molecule: COc1cn(-c2ccccc2F)nc(C(=O)N(C)OC)c1=O
melting point: 152 to 154 °C
--
Molecule: Cc1ccc(C(=O)O)c(Nc2ccc3cn[nH]c3c2)n1
melting point: 273 to 274 °C
--
Molecule: CSc1nnc(-c2ccnc(Nc3cccc(C(F)(F)F)c3)c2)o1
melting point: 189 to 190 °C
--
Molecule: Cc1ccc(C(=O)/C=C/c2c(-c3ccc(F)cc3)nc3sccn23)cc1C
melting point: 210 to 213 °C

We now examine a further molecule.
Need melting point of `CCOC(=O)C(Cc1c([N+](=O)[O-])ccc(C)c1C)(NC(C)=O)C(=O)OCC` , thanks. 112 to 113 °C

====

Quick reference: melting point of the listed items.

Sample answers from the record:
Molecule: CCOC(=O)C(=NOC)C1=CSc2ccccc2S1
melting point: 78 to 81 °C

Molecule: COC1(OC)CCN(c2nc3c(cc2F)C=C(C(=O)O)CN3c2ccc(F)cc2F)C1
melting point: 205 to 206 °C

Molecule: O=C(Nc1ccc2c(c1)OCO2)c1ccccc1
melting point: 110 to 112 °C

Molecule: CCC/C=C/c1ccc(C#CC(C)(C)O)cc1
melting point: 65 °C

Molecule: FC(F)(F)c1ccc(Nc2nnc(Cc3ccncc3)c3ccccc23)cc1
melting point: 205 to 206 °C

Requested field: melting point. Item: `COc1ccc(-c2c(C(N)=O)c3n(c2Cl)CCN(C(=O)NC(C)(C)C)C3)cc1` 168 to 170 °C

# get_value(readout='melting point', item= `COc1ccc(Cc2nnc(N[C@H]3CO[C@H](C(C)C)OC3)c3ccccc23)cn1` ) 186 to 187 °C

Param item = `Brc1ccc2oc(Cc3cccs3)cc2c1` ; retrieve measured melting point. 84 to 86 °C
